assay.overview: xn = mol fraction of the nth substance listed, in the solute-free solvent
test.context: 278.15 K; x2 = 0.2307
attribute.measured: solubility (g/100 g solution)

CC(C)C(=O)Nc1ccc([N+](=O)[O-])c(C(F)(F)F)c1 + CC(C)O + O; 1.53

P. O=c1cc(CBr)c2ccccc2[nH]1 + CCCO + O
Q. O=C1C=CC(=O)N1c1ccccc1Br + CC(C)O + O
R. Nc1ncc(Br)nc1Br + CC(C)O + O
S. O=c1cc(CBr)c2ccccc2[nH]1 + CC(C)O + O
Request: Form: Sort by [solubility (g/100 g solution)] Order [ ascending ] Respond with an ordered listing of the labels, as requested.
Result: S, P, R, Q
(S: 0.0498, P: 0.0788, R: 0.133, Q: 2.9)
